// reported IC50 per item
TARGET_OR_SYSTEM: human recombinant H-PGDS (Homo sapiens)
Sequence (O60760 whole entry): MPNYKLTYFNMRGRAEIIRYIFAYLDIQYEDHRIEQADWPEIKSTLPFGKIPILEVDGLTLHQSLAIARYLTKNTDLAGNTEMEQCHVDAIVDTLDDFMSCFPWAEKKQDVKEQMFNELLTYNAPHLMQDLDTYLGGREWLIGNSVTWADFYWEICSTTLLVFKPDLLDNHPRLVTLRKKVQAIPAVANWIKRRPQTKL
METHOD: Fluorescence intensity h-PGDS TBA enzyme assay (PGH2 depletion, MDA/TBA fluorescence)
Format: biochemical
TEST_SETTINGS: 1:175,000 human recombinant H-PGDS, 42 second reaction, 3-fold serial dilutions, highest concentration typically 1 μM
Give the value; after it, write the unit.

Check out these entries, answers already filled in.
COMPOUND	IC50
CNC(=O)N(C)[C@H]1CC[C@H](NC(=O)c2ccc(-c3cccc(F)c3)nc2)CC1 [Example 272]	11 nM
CN(C)CCCNC(=O)[C@H]1CC[C@H](NC(=O)c2ccc(-c3cccc(F)c3)nc2)CC1 [Example 113A]	21.1 nM
CCN1CCC(CNC(=O)[C@H]2CC[C@H](NC(=O)c3ccc(-c4cccc(F)c4)nc3)CC2)C1 (relative stereo) [Example 113F]	60 nM
O=C(N[C@H]1CC[C@H](C(=O)NCCCO)CC1)c1ccc(-c2cccc(F)c2)nc1 [Example 113G]	4.5 nM
O=C(N[C@H]1CC[C@H](C(=O)NC2CCNCC2)CC1)c1ccc(-c2cccc(F)c2)nc1 [Example 201]	31 nM

Consider C[C@@H](CO)NC(=O)[C@H]1CCC[C@@H](NC(=O)c2ccc(-c3cccc(F)c3)nc2)C1 [Example 188] . Its measured IC50 is 17.1 nM

Consider COCCNC(=O)[C@@H]1CCC[C@@H](NC(=O)c2ccc(-c3cccc(F)c3)nc2)C1 (relative stereo) [Example 240] . Its measured IC50 is 26.5 nM
